Origin of values: patent US20200308267A1

system.under.test: VEGF
Sequence (P15692 whole entry): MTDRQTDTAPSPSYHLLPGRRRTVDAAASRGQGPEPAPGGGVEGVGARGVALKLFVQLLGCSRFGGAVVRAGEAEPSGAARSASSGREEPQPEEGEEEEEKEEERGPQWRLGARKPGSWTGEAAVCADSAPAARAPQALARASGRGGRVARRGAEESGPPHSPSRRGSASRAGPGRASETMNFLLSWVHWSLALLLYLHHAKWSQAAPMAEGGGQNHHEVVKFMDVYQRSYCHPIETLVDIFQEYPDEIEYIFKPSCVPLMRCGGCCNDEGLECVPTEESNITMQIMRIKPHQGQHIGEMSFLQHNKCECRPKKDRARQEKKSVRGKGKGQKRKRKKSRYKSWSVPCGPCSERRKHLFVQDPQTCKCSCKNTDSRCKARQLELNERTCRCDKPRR
protocol.summary: cell-based or functional assay
# maps each entry to its HUVEC proliferation, % inhibition
endpoint: HUVEC proliferation, % inhibition

binder | endpoint | reported.measurement
VEGFBII025 (VHH, not shown: small tags and cut ends) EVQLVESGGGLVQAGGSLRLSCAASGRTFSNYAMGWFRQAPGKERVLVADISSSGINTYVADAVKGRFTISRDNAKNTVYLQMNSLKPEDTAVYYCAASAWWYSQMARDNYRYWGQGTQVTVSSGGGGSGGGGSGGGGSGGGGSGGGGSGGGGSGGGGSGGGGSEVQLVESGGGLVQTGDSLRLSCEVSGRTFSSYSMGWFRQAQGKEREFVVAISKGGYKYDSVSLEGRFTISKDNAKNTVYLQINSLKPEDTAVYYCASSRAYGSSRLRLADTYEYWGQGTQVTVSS | HUVEC proliferation, % inhibition | 104%
VEGFBII022 (VHH, not shown: small tags and cut ends) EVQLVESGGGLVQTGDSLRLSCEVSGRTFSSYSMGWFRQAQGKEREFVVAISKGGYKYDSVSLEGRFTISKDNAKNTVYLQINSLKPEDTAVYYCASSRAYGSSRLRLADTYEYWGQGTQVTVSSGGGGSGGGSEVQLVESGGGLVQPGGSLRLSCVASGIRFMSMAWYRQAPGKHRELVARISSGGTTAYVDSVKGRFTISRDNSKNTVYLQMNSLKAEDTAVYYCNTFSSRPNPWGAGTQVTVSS | HUVEC proliferation, % inhibition | 100%
